- TESTED_ON: T1, orthogonal hCD122 receptor (hoRb), hCD122 with H133D and Y134F (human, UniProt P14784 27-550)
- T1 sequence: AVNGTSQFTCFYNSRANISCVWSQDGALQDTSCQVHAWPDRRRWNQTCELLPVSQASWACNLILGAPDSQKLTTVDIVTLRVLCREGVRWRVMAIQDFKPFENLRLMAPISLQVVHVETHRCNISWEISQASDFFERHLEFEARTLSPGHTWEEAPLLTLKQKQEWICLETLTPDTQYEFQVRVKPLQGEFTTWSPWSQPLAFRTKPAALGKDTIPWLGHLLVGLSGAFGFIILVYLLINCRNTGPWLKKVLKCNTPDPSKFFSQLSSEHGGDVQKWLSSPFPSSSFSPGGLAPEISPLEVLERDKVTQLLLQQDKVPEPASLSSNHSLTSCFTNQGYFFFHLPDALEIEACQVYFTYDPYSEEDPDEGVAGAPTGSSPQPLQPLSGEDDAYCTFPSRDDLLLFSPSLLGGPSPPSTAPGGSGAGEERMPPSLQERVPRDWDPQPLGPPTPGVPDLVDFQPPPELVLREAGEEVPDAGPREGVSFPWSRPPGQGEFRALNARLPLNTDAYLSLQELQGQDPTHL
- PROTOCOL_TEXT: cell-based or functional assay
MEASUREMENT_NAME: NKL Ortho Proliferation Signal 1:2
Form rule: numeric answer, no unit written next to it.

See these solved cases before continuing.
L14W, SQVLKA (ligand) APTSSSTKKTQLQWSQLLVLLKAILNGINNYKNPKLTRMLTFKFYMPKKATELKHLQCLEEELKPLEEVLNLAQSKNFHLRPRDLISNINVIVLELKGSETTFMCEYADETATIVEFLNRWITFCQSIISTLT = 50300
ΔL14, SQVLKA (ligand) APTSSSTKKTQLQSQLLVLLKAILNGINNYKNPKLTRMLTFKFYMPKKATELKHLQCLEEELKPLEEVLNLAQSKNFHLRPRDLISNINVIVLELKGSETTFMCEYADETATIVEFLNRWITFCQSIISTLT = 31800
T3P, SQVLKA (ligand) APPSSSTKKTQLQLSQLLVLLKAILNGINNYKNPKLTRMLTFKFYMPKKATELKHLQCLEEELKPLEEVLNLAQSKNFHLRPRDLISNINVIVLELKGSETTFMCEYADETATIVEFLNRWITFCQSIISTLT = 55400

// moving on: another record for NKL Ortho Proliferation Signal 1:2
Incoming: Would you mind telling me what NKL Ortho Proliferation Signal 1:2 value was observed for Q74N, SQVLKA (ligand) APTSSSTKKTQLQLSQLLVLLKAILNGINNYKNPKLTRMLTFKFYMPKKATELKHLQCLEEELKPLEEVLNLANSKNFHLRPRDLISNINVIVLELKGSETTFMCEYADETATIVEFLNRWITFCQSIISTLT ?
Outgoing: 55100
